biological target: beta-1 adrenoceptor (Rattus norvegicus, UniProt P18090); construct: from tissue; host or cells: heart of the pithed rat, in vivo; assay: Inhibition of isoproterenol induced tachycardia in the pithed rat; format: in vivo; details: read-out: Effective Dose (ID50)
Sequence (P18090 whole entry): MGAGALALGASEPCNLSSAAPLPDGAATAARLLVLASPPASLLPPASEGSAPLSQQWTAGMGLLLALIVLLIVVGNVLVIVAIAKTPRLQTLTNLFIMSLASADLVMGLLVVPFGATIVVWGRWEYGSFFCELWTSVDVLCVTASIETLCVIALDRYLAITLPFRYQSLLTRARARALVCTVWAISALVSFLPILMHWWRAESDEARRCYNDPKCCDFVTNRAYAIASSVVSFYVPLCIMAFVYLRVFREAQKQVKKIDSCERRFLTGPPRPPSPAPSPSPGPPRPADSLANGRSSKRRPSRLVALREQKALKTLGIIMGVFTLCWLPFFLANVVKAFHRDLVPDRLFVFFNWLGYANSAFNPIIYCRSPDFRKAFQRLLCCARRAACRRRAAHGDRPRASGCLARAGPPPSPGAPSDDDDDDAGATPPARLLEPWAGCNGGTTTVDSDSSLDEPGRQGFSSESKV
measure: log10(ED50) (log10 of the value in mg/kg)
Annotation: log10 of ED50, mg/kg basis.

Here are 2 compounds together with their reported answers.
compound	log10(ED50)
O=C(NCCNCC(O)COc1ccc(OCCOCCc2ccc(F)cc2)cc1)C1CCOCC1 (stereo not shown) [Example 6]	-1.52
CCCOCCOc1ccc(OCC(O)CNCCNC(=O)C2CCOCC2)cc1 (stereo not shown) [Example 3]	-1.82

Batch lookup, log10(ED50) per entry.
1. CC(C)COCCOc1ccc(OCC(O)CNCCNC(=O)C2CCOCC2)cc1 (stereo not shown) [Example 4]
2. CCCOCCOc1ccc(OCC(O)CNCCNC(=O)C2CCOCC2)c(F)c1 (stereo not shown) [Example 2]
3. CCCOCCOc1ccc(OC[C@@H](O)CN[C@H](C)CNC(=O)C2CCOCC2)cc1 [Example 10]
4. O=C(NCCNCC(O)COc1ccc(OCCOCc2ccc(F)cc2)cc1)C1CCOCC1 (stereo not shown) [Example 7]
5. CC(C)COCCOc1ccc(OCC(O)CN[C@H](C)CNC(=O)C2CCOCC2)cc1 (stereo partly shown) [Example 21]
6. CCCOCCOc1ccc(OCC(O)CNCCNC(=O)C2CCOCC2)c(C#N)c1 (stereo not shown) [Example 8]
7. Cc1cc(OCCOCC2CC2)ccc1OCC(O)CNCCNC(=O)C1CCOCC1 (stereo not shown) [Example 1]

Marked response:
1. -1.70
2. -1.70
3. -3.22
4. -1.70
5. -2.30
6. -1.70
7. -1.00

* * *

For each record, write down the corresponding Kb.
biological target: beta adrenoceptor (Cavia porcellus, UniProt H0W3H1); construct: in the spontaneously beating guinea pig atrium; from tissue; host or cells: guinea pig atrium; experiment: Inhibition of the positive chronotropic isoproterenol effect in spontaneously beating guinea pig atrium; type: cell-based
Sequence (H0W3H1 1-470): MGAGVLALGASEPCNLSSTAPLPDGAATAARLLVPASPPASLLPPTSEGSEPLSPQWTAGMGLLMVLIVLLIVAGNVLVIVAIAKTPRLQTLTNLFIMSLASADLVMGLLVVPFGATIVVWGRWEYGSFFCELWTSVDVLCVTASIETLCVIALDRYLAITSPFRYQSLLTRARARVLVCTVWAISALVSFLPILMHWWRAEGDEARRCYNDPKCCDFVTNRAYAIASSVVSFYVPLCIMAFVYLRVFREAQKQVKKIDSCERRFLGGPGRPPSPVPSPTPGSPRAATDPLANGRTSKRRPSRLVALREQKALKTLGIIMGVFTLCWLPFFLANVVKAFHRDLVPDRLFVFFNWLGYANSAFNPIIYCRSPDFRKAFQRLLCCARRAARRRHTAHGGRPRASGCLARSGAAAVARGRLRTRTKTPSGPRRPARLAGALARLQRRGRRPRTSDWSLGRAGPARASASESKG
Numbers only, in nM.

compound	readout-unit	Kb
CCCOCCOc1ccc(OC[C@@H](O)CN[C@@H](C)CNC(=O)C2CCOCC2)cc1	nM	160
O=C(NCCNCC(O)COc1ccc(OCCOCCc2ccc(F)cc2)cc1)C1CCOCC1 (stereo not shown)	nM	20
CCCOCCOc1ccc(OC[C@@H](O)CN[C@H](C)CNC(=O)C2CCOCC2)cc1	nM	30

Now for a further compound.
Exam item: Given Cc1cc(OCCOCC2CC2)ccc1OCC(O)CNCCNC(=O)C1CCOCC1 (stereo not shown) , state its recorded Kb.
Marked response: 120

* * *

target: beta adrenoceptor (Cavia porcellus); construct: in the spontaneously beating guinea pig atrium; from tissue; host or cells: guinea pig atrium; assay: Inhibition of the positive chronotropic isoproterenol effect in spontaneously beating guinea pig atrium; type: cell-based
Decide using Kb alone. Strictly below 50 nM: true. Equal to or above 50 nM: false.

compound	system-name	class
CC(C)COCCOc1ccc(OCC(O)CN[C@H](C)CNC(=O)C2CCOCC2)cc1 (stereo partly drawn) [Example 21]	beta adrenoceptor (Cavia porcellus)	false

Exam item: Here's an entry: O=C(NCCNCC(O)COc1ccc(OCCOCc2ccc(F)cc2)cc1)C1CCOCC1 (stereo not drawn) [Example 7] . Is its Kb below 50 nM?
Marked response: false

Exam item: Here's an entry: O=C(NCCNCC(O)COc1ccc(OCCOCC2CCCC2)cc1)C1CCOCC1 (stereo not drawn) [Example 5] . Is its Kb below 50 nM?
Marked response: true

Exam item: Here's an entry: C[C@H](CNC(=O)C1CCOCC1)NCC(O)COc1ccc(OCCOCC2CCCC2)cc1 (stereo partly drawn) [Example 15] . Is its Kb below 50 nM?
Marked response: true

Exam item: Here's an entry: CCCOCCOc1ccc(OCC(O)CNCCNC(=O)C2CCOCC2)c(C#N)c1 (stereo not drawn) [Example 8] . Is its Kb below 50 nM?
Marked response: false

Exam item: Here's an entry: CCCOCCOc1ccc(OC[C@@H](O)CNC(C)CNC(=O)C2CCOCC2)cc1 (stereo partly drawn) [Example 9] . Is its Kb below 50 nM?
Marked response: true

Exam item: Here's an entry: CCCOCCOc1ccc(OCC(O)CNCCNC(=O)C2CCOCC2)cc1 (stereo not drawn) [Example 3] . Is its Kb below 50 nM?
Marked response: false

* * *

For each record, write down the corresponding ED50.
biological target: beta-1 adrenoceptor (Rattus norvegicus, UniProt P18090); construct: from tissue; host or cells: heart of the pithed rat, in vivo; assay: Inhibition of isoproterenol induced tachycardia in the pithed rat; type: in vivo; details: read-out: Effective Dose (ID50)
Numbers only, in mg/kg.

compound	ED50 / mg/kg
C[C@H](CNC(=O)C1CCOCC1)NCC(O)COc1ccc(OCCOCC2CCCC2)cc1 (stereo partly shown) [Example 15]	0.01
O=C(NCCNCC(O)COc1ccc(OCCOCC2CCCC2)cc1)C1CCOCC1 (stereo not shown) [Example 5]	0.03
CCCOCCOc1ccc(OC[C@@H](O)CN[C@@H](C)CNC(=O)C2CCOCC2)cc1 [Example 11]	0.02

Exam item: Given CCCOCCOc1ccc(OC[C@@H](O)CNC(C)CNC(=O)C2CCOCC2)cc1 (stereo partly shown) [Example 9] , state its recorded ED50.
Marked response: 0.003

Origin of values: patent US5242943A
